experiment: self-splicing fitness, log relative to wild type (ln ratio); higher = more splicing; Tetrahymena group I intron in knt gene, E. coli kanamycin selection, DiMSum; sequences stand for … in CUCUCU…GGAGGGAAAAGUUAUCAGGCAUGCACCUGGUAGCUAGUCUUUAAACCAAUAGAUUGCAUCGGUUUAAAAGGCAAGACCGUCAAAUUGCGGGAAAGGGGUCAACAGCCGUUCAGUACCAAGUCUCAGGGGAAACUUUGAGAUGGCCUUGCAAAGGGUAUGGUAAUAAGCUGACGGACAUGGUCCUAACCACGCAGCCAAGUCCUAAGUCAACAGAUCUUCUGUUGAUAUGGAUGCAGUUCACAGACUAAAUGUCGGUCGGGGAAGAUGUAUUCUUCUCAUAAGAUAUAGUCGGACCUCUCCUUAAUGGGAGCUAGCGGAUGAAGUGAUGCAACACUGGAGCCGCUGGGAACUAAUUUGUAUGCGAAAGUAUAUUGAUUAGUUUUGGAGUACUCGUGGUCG; conditions: 30 °C;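 further: selection with 25 µg/mL kanamycin versus none on LB agar overnight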
Class yes (1): self-splicing fitness (ln) at least -3. Class no (0): self-splicing fitness (ln) below -3.

Reference set (10 entries):
{"columns": ["ENTRY_SEQUENCE", "GROUP"],
 "data": [
  ["UAUAAGCAAUAUUACGACUA", "yes (1)"],
  ["AAGAAGCAAUAUUACGGCCA", "yes (1)"],
  ["UUGUAGCAAUAUUACGACAU", "yes (1)"],
  ["GAGCAGCAAUAUUACGACCC", "yes (1)"],
  ["GAGCAGCAAUAUUACGCUGA", "yes (1)"],
  ["GAGCAGCAAUAUUACGAGCG", "yes (1)"],
  ["UCAAAGCAAUAUUACGGCUU", "no (0)"],
  ["UAUUAGCAAUAUUACGGGGA", "yes (1)"],
  ["CCAGAGCAAUAUUACGCAUC", "yes (1)"],
  ["AAGAAGCAAUAUUACGGGCA", "yes (1)"]
]}

Please examine the following record next.
Decide: is the reported value of self-splicing fitness (ln) for ACCUAGCAAUAUUACGGAGA equal to or greater than -3? yes (1)

* * *

Each entry below lists one item and its recorded self-splicing fitness (ln) value.
experiment: self-splicing fitness, log relative to wild type (ln ratio); higher = more splicing; Tetrahymena group I intron in knt gene, E. coli kanamycin selection, DiMSum; sequences stand for … in CUCUCU…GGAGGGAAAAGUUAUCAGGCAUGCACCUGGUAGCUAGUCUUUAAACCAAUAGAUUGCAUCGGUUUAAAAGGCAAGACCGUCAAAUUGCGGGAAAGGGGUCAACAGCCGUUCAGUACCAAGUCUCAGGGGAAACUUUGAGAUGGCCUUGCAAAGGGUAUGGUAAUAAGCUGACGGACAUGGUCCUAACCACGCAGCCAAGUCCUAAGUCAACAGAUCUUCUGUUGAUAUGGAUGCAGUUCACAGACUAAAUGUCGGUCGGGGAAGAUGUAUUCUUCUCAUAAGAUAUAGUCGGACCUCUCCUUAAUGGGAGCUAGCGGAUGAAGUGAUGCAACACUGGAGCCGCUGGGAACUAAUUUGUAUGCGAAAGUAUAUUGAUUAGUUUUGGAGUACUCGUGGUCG; conditions: 30 °C
Lab note: write the figure by itself, no unit.

Output self-splicing fitness (ln) of UCGUAGCAAUAUUACGUAAU -2.47

Output self-splicing fitness (ln) of GCACAGCAAUAUUACGAAAA -1.7

Output self-splicing fitness (ln) of GGACAGCAAUAUUACGCAUG -0.84

Output self-splicing fitness (ln) of UCACAGCAAUAUUACGCUCA -1.61

Output self-splicing fitness (ln) of UGACAGCAAUAUUACGGGGU -4.41

Output self-splicing fitness (ln) of UGGUAGCAAUAUUACGGUUU -2.64

Output self-splicing fitness (ln) of AGGGAGCAAUAUUACGGCUA -2.09

Output self-splicing fitness (ln) of CUUAAGCAAUAUUACGAAUA -2.42

Output self-splicing fitness (ln) of ACAGAGCAAUAUUACGUUAC -3

Output self-splicing fitness (ln) of UCGUAGCAAUAUUACGGACU -3.21

Output self-splicing fitness (ln) of UGUCAGCAAUAUUACGUCGU -1.49

Output self-splicing fitness (ln) of GGCAAGCAAUAUUACGAGUG -1.1

Output self-splicing fitness (ln) of ACUCAGCAAUAUUACGCGCU -1.41

Output self-splicing fitness (ln) of UUGGAGCAAUAUUACGGUCA -1.21

Output self-splicing fitness (ln) of GAGGAGCAAUAUUACGUUCU -2.2

Output self-splicing fitness (ln) of AAUUAGCAAUAUUACGCGAU -3.62

* * *

Each entry below lists one item and its recorded self-splicing fitness (ln) value.
assay: self-splicing fitness, log relative to wild type (ln ratio); higher = more splicing; Tetrahymena group I intron in knt gene, E. coli kanamycin selection, DiMSum; sequences stand for … in CUCUCU…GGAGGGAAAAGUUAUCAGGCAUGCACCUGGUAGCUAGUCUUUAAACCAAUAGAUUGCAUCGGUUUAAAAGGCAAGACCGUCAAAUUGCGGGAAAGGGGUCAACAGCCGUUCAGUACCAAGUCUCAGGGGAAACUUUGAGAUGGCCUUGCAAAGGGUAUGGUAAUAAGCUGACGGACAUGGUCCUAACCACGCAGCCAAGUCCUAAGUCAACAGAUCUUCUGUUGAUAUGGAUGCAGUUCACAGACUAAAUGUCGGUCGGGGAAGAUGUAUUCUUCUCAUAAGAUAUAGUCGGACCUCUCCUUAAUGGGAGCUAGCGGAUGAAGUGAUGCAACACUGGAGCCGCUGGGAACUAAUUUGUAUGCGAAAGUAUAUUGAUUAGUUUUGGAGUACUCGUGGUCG; conditions: 37 °C

Sample answers from the record:
{"columns": ["ENTRY_SEQUENCE", "REPORTED_METRIC", "RESULT"],
 "data": [
  ["AGAAAGCAAUAUUACGCGUG", "self-splicing fitness (ln)", -0.548],
  ["CAAAAGCAAUAUUACGUACU", "self-splicing fitness (ln)", -0.995],
  ["ACAAAGCAAUAUUACGUCCU", "self-splicing fitness (ln)", -0.399],
  ["ACGCAGCAAUAUUACGUCUC", "self-splicing fitness (ln)", -0.606],
  ["CCAAAGCAAUAUUACGAGCA", "self-splicing fitness (ln)", -3.23]
]}

Output self-splicing fitness (ln) of UACGAGCAAUAUUACGGAUC -2.63

Output self-splicing fitness (ln) of AUAGAGCAAUAUUACGAUGG -2.02

Output self-splicing fitness (ln) of GGUGAGCAAUAUUACGAUUC 0.137

* * *

test: self-splicing fitness, log relative to wild type (ln ratio); higher = more splicing; Tetrahymena group I intron in knt gene, E. coli kanamycin selection, DiMSum; sequences stand for … in CUCUCU…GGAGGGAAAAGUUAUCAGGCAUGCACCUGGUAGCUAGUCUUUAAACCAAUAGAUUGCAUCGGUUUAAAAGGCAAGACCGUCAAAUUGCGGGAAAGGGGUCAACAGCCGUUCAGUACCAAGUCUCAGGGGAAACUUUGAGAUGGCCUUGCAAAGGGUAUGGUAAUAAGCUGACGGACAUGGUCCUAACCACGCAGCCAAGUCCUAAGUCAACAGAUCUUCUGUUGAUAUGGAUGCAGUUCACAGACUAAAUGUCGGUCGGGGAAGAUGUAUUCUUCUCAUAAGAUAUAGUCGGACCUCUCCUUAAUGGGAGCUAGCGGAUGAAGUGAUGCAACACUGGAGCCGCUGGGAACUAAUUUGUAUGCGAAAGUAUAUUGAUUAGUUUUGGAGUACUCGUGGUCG; details: 37 °C
Could you please classify the records by self-splicing fitness (ln) using these ranges: lo (below -2), mid (-2 to below -0.8), hi (-0.8 or more)

Reference set (3 entries):
{"columns": ["ENTRY_SEQUENCE", "GROUP"],
 "data": [
  ["GCUUAGCAAUAUUACGUAGC", "mid"],
  ["AUCGAGCAAUAUUACGGCAG", "lo"],
  ["CGUUAGCAAUAUUACGCCGU", "mid"]
]}

Category of AUGGAGCAAUAUUACGCACA , please. mid

Category of AGAAAGCAAUAUUACGGUGG , please. lo

Category of GCUGAGCAAUAUUACGAGCA , please. mid

Category of GCGGAGCAAUAUUACGGAUA , please. mid

Category of AGUCAGCAAUAUUACGCAAA , please. mid

* * *

Each entry below lists one item and its recorded self-splicing fitness (ln) value.
assay: self-splicing fitness, log relative to wild type (ln ratio); higher = more splicing; Tetrahymena group I intron in knt gene, E. coli kanamycin selection, DiMSum; sequences stand for … in CUCUCU…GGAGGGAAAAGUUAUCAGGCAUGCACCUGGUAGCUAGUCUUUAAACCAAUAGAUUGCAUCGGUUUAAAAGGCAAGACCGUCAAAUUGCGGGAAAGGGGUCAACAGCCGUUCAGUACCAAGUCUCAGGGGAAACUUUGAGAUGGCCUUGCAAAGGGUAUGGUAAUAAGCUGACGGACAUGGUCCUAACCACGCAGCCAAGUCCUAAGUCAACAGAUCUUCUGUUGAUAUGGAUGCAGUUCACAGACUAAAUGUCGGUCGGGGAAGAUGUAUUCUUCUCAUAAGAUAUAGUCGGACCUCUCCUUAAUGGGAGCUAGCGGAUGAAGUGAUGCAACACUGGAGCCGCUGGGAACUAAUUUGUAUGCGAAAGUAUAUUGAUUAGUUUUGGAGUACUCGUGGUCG; conditions: 30 °C

Sample answers from the record:
{"columns": ["ENTRY_SEQUENCE", "self-splicing fitness (ln)"],
 "data": [
  ["ACACAGCAAUAUUACGACUU", -0.131],
  ["UCAAAGCAAUAUUACGGCAG", -1.24],
  ["ACUCAGCAAUAUUACGACCA", -1.19]
]}

Output self-splicing fitness (ln) of GAGAAGCAAUAUUACGUUAG -2.54

Output self-splicing fitness (ln) of UAGCAGCAAUAUUACGCUGC -2.86

Output self-splicing fitness (ln) of UCGAAGCAAUAUUACGAUCA -1.46

Output self-splicing fitness (ln) of GUAGAGCAAUAUUACGAGGU -1.12

Output self-splicing fitness (ln) of AGGAAGCAAUAUUACGUUUU -4.64

All values here come from the supplement of paper PMC7877785.
